QUANTITY: melting point

**Query** What measured melting point goes with CCNC(=O)c1noc(-c2cc(C(C)C)c(O)cc2O)c1-c1ccc(CN(C)CCCCCCC(=O)NO)cc1 ?
**Result** 118 to 119 °C

**Query** Sample CCNC(=O)c1noc(-c2cc(C(C)C)c(O)cc2O)c1-c1ccc(CNCCCCCC(=O)NO)cc1 — what was its melting point?
**Result** 134 to 135 °C

**Query** If you can, please state the reported melting point value of CCNC(=O)c1noc(-c2cc(C(C)C)c(O)cc2O)c1-c1ccc(CN(C)CCCC(=O)NO)cc1 .
**Result** 132 to 134 °C

**Query** Please look up its melting point: CC(C)c1cc(-c2onc(C(=O)NCCCCCCC(=O)NO)c2-c2ccc(CN3CCOCC3)cc2)c(O)cc1O
**Result** 109 to 111 °C

**Query** Query: melting point; subject: CC(C)c1cc(-c2onc(C(=O)NCCCCCC(=O)NO)c2-c2ccc(CN3CCOCC3)cc2)c(O)cc1O
**Result** 164 to 166 °C

**Query** # get_value(readout='melting point', item= CCNC(=O)c1noc(-c2cc(C(C)C)c(O)cc2O)c1-c1ccc(CNCCC(=O)NO)cc1 )
**Result** 146 to 148 °C

**Query** Name the reported melting point value associated with the compound CCNC(=O)c1noc(-c2cc(C(C)C)c(O)cc2O)c1-c1ccc(CNCCCCCCC(=O)NO)cc1
**Result** 126 to 128 °C

**Query** What value of melting point has been reported for the following compound? CCNC(=O)c1noc(-c2cc(C(C)C)c(O)cc2O)c1-c1ccc(CN(C)CCC(=O)NO)cc1
**Result** 120 to 122 °C

**Query** Quick one: melting point for CC(C)c1cc(-c2onc(C(=O)NCCCCCCCC(=O)NO)c2-c2ccc(CN3CCOCC3)cc2)c(O)cc1O ?
**Result** 117 to 119 °C

**Query** Which melting point value is on record for CCNC(=O)c1noc(-c2cc(C(C)C)c(O)cc2O)c1-c1ccc(CN(C)CCCCCC(=O)NO)cc1 ?
**Result** 113 to 115 °C

**Query** Would you kindly share the measured melting point for CC(C)c1cc(-c2onc(C(=O)NCCCC(=O)NO)c2-c2ccc(CN3CCOCC3)cc2)c(O)cc1O ?
**Result** 129 to 130 °C

**Query** Item COc1ccc(-c2c(C(=O)NCC3CCN(c4ncc(C(=O)NO)cn4)CC3)noc2-c2cc(Cl)c(O)cc2O)cc1 has what recorded melting point?
**Result** 148 to 151 °C

**Query** Query: melting point; subject: COc1ccc(-c2c(C(=O)N3CCN(c4ncc(C(=O)NO)cn4)CC3)noc2-c2cc(Cl)c(O)cc2O)cc1
**Result** 186 to 190 °C

###

Would you mind telling me the reported IC50 of each entry?
system: HDAC (HeLa nuclear extract); assay: HDAC fluorimetric assay (inhibition of HDAC enzymatic activity); assay type: biochemical; conditions: HDAC fluorimetric assay kit

**Query** Which value of IC50 has been reported for CCNC(=O)c1noc(-c2cc(C(C)C)c(O)cc2O)c1-c1ccc(CNCCCCCCC(=O)NO)cc1 in the records?
**Result** 100 to 1000 nM

**Query** Quick one: IC50 of CCNC(=O)c1noc(-c2cc(C(C)C)c(O)cc2O)c1-c1ccc(CN(C)CCCC(=O)NO)cc1 ?
**Result** ≥ 10000 nM

**Query** Record request: IC50 value, item CCNC(=O)c1noc(-c2cc(Cl)c(O)cc2O)c1-c1ccc(OCCCC(=O)NO)cc1
**Result** 100 to 1000 nM

**Query** Please give the measured IC50 for this molecule: COc1ccc(-c2c(C(=O)NCCCCCCCC(=O)NO)noc2-c2cc(Cl)c(O)cc2O)cc1
**Result** ≤ 100 nM

**Query** Entry CC(C)c1cc(-c2onc(C(=O)NCCCCCC(=O)NO)c2-c2ccc(CN3CCOCC3)cc2)c(O)cc1O : reported IC50 = ?
**Result** 100 to 1000 nM

**Query** Would you mind telling me what IC50 value was observed for COc1ccc(-c2c(C(=O)NCCC(=O)NO)noc2-c2cc(Cl)c(O)cc2O)cc1 ?
**Result** 1000 to 10000 nM

**Query** Would you kindly share the measured IC50 for CCNC(=O)c1noc(-c2cc(Cl)c(O)cc2O)c1-c1ccc(OCCCCC(=O)NO)cc1 ?
**Result** 1000 to 10000 nM

**Query** Please report the recorded IC50 for CC(C)c1cc(-c2onc(C(=O)NCCCCCCC(=O)NO)c2-c2ccc(CN3CCOCC3)cc2)c(O)cc1O .
**Result** ≤ 100 nM

**Query** I have this molecule here, COc1ccc(-c2c(C(=O)N3CCN(c4ncc(C(=O)NO)cn4)CC3)noc2-c2cc(Cl)c(O)cc2O)cc1 , and I need its recorded IC50.
**Result** ≤ 100 nM

**Query** Find the recorded IC50 belonging to CCNC(=O)c1noc(-c2cc(C(C)C)c(O)cc2O)c1-c1ccc(CNCCC(=O)NO)cc1 and report it.
**Result** 1000 to 10000 nM

###

Give measured pIC50 for each item. Keep answers brief.
test system: HDAC (HeLa nuclear extract); assay: HDAC fluorimetric assay (inhibition of HDAC enzymatic activity); assay type: biochemical; settings: HDAC fluorimetric assay kit
pIC50: −log10 of the molar value.

**Query** Can you look up pIC50 on HDAC (HeLa nuclear extract) for CCNC(=O)c1noc(-c2cc(Cl)c(O)cc2O)c1-c1ccc(OCCCCCCC(=O)NO)cc1 [Compound 4] ?
**Result** 6.00 to 7.00

**Query** Requested read-out pIC50, target or system HDAC (HeLa nuclear extract), entry CCNC(=O)c1noc(-c2cc(C(C)C)c(O)cc2O)c1-c1ccc(CN(C)CCCCCC(=O)NO)cc1 [Compound 22]
**Result** 5.00 to 6.00

**Query** Hello, I am looking for reported pIC50 with HDAC (HeLa nuclear extract) for COc1ccc(-c2c(C(=O)NCCCCCCC(=O)NO)noc2-c2cc(Cl)c(O)cc2O)cc1 [Compound 9] . Could you help?
**Result** ≥ 7.00

**Query** Kindly state the measured pIC50 obtained for CCNC(=O)c1noc(-c2cc(Cl)c(O)cc2O)c1-c1ccc(OCCCCCC(=O)NO)cc1 [Compound 3] with HDAC (HeLa nuclear extract).
**Result** 6.00 to 7.00

###

Give IC50 for every item shown.
test system: HDAC (HeLa nuclear extract); assay: HDAC fluorimetric assay (inhibition of HDAC enzymatic activity); format: biochemical; conditions: HDAC fluorimetric assay kit

**Query** Give HDAC (HeLa nuclear extract) IC50 for CCNC(=O)c1noc(-c2cc(C(C)C)c(O)cc2O)c1-c1ccc(CN(C)CCC(=O)NO)cc1 [Compound 16]
**Result** ≥ 10000 nM

**Query** Give HDAC (HeLa nuclear extract) IC50 for CCNC(=O)c1noc(-c2cc(C(C)C)c(O)cc2O)c1-c1ccc(CNCCCCCC(=O)NO)cc1 [Compound 21]
**Result** 1000 to 10000 nM

**Query** Please tell me: IC50 of COc1ccc(-c2c(C(=O)NCCCCCC(=O)NO)noc2-c2cc(Cl)c(O)cc2O)cc1 [Compound 8] , system HDAC (HeLa nuclear extract)?
**Result** 100 to 1000 nM

**Query** Any idea what IC50 came out for COc1ccc(-c2c(C(=O)NCC3CCN(c4ncc(C(=O)NO)cn4)CC3)noc2-c2cc(Cl)c(O)cc2O)cc1 [Compound 13] on HDAC (HeLa nuclear extract)?
**Result** ≤ 100 nM

**Query** # value lookup — system HDAC (HeLa nuclear extract), readout IC50, item CC(C)c1cc(-c2onc(C(=O)NCCCCCCCC(=O)NO)c2-c2ccc(CN3CCOCC3)cc2)c(O)cc1O [Compound 29]
**Result** 100 to 1000 nM
